Tested on: SR leukemia
Test: NCI-60 one-dose screen, 48 h
Details: 10 µM unless noted
About 83,000 compounds went through this panel and 20% of them were active in at least one assay; those are over-represented in the sample as a whole. Active and inactive are the calls of the source. How the source made its calls: active means growth percent below 10; inactive means the rest.
Use one of these outcomes when replying: yes = active, no = inactive

What did the test return for COc1c(NC[C@H]2OC(O)[C@H](O)[C@@H](O)[C@@H]2O)c(=O)c1=O (stereo partly specified) ? no

What did the test return for `COc1ccc(/C=C2\Oc3cc(OCCN4CCCC4)ccc3C2=O)c(OC)c1` ? no

What did the test return for `CCCCCCCCCCCCCCCCCCOc1cccc(CCOP(=O)(O)OCC[N+](C)(C)C)c1` ? no

What did the test return for `CC[C@]1(O)C[C@@H]2CN(Cc3c([nH]c4ccccc34)[C@@](C(=O)OC)(c3cc4c(cc3OC)N(C)[C@H]3[C@@](O)(C(=O)OC)[C@H](OC(C)=O)[C@]5(CC)[C@@H]6C[C@@H]6CN6CC[C@]43[C@@H]65)C2)C1` ? yes

What did the test return for `CCCCCCCC/C=C\CCCCCCCCOc1ccccc1CCOP(=O)(O)OCC[N+](C)(C)C` ? no

What did the test return for `CC(=O)Nc1nc(C(=O)N2N=C(C)/C(=C/c3ccc(Cl)cc3)C2=O)cs1` ? no

What did the test return for `CCSc1nnc(Nc2ccc(C(C)C)cc2)s1` ? no

What did the test return for Clc1ccc2c(c1)NC1(CCSc3ccccc31)n1nccc1-2 (stereo unspecified) ? no

What did the test return for `CN(C)C/C=C/C(=O)Nc1cc2c(Nc3ccc(F)c(Cl)c3F)ncnc2cc1OCCOC(F)F` ? no

What did the test return for `COc1ccc(NC(=O)CSc2nc3ccccc3c(=O)n2Cc2cc(OC)c(OC)c(OC)c2)cc1` ? no

What did the test return for `CC(C)C[C@H](NC(=O)[C@@H](Cc1ccccc1)n1ccc(Nc2ccccc2)cc1=O)B(O)O` ? no

What did the test return for `CCn1cc(C(=O)O)c(=O)c2cc(F)c(N3CCN(S(=O)(=O)c4ccc(Cl)cc4Cl)CC3)cc21` ? yes

What did the test return for `c1ccc2c(c1)Oc1ccccc1C2C1c2ccccc2Oc2ccccc21` ? no

What did the test return for `O=c1[nH]c(CN2CCN(c3ccccc3F)CC2)nc2sc3c(c12)CCC3` ? no

What did the test return for `O=C(CNC1CCCCC1)Nc1ccc(-c2nc3ccccc3s2)cc1` ? yes

What did the test return for COc1cc(C2C=C(C)N=C3SC(C)=NN32)cc(OC)c1OC (stereo unspecified) ? no

What did the test return for `O=C(/C=C/CN1CCOCC1)Nc1cc2c(Nc3cccc(Cl)c3F)ncnc2cc1OCCOC(F)F` ? no

What did the test return for `Cc1c(C(=O)NCc2ccccc2)[n+](=O)c2cc(F)ccc2n1[O-]` ? no

What did the test return for `C[C@]12CC[C@@H]3c4cc(O)c(O)cc4CC[C@H]3[C@@H]1CC[C@@H]2O` ? yes

What did the test return for `O=C1OC(c2ccccc2)=N/C1=C\c1ccc([N+](=O)[O-])cc1` ? no

What did the test return for `COc1cc(NCCCN=C(N)NC(N)=NC(C)C)c2ncccc2c1` ? no

What did the test return for NC(CC(N)C(=O)O)C(=O)O (stereo unspecified) ? no

What did the test return for O=C(c1ccncc1)N1N=C(c2ccc(Cl)cc2)CC1c1c[nH]c2ccccc12 (stereo unspecified) ? no

What did the test return for `O=C1Nc2ccc(Br)cc2C1=N/C=c1\[nH]c(=O)/c(=C/c2ccc(Cl)cc2)s1` ? no

What did the test return for `CCN(CC)CCC(=O)c1cccc2ccccc12` ? no

What did the test return for `CCOC(=O)CC/C(C)=N\Nc1ccc([N+](=O)[O-])cc1` ? no

* * *

System: SK-MEL-5 melanoma
Assay: NCI-60 one-dose screen, 48 h (100 = growth as untreated, 0 = no growth, -100 = all killed)
Conditions: 10 µM unless noted
The panel holds about 83,000 compounds, 20% with a hit somewhere; the sample as a whole holds those more often.
The label Satisfied is reserved for growth strictly under 50%; Not satisfied covers values equal to or above it.

Lab note: growth threshold 50%. Does this molecule come in strictly under it? `C[C@]12CC[C@@H]3c4cc(O)c(O)cc4CC[C@H]3[C@@H]1CC[C@@H]2O` Satisfied

Lab note: growth threshold 50%. Does this molecule come in strictly under it? `COc1cc(C(=O)CCCl)ccc1O` Not satisfied

Lab note: growth threshold 50%. Does this molecule come in strictly under it? `COc1ccc(-n2c(C)cc(-c3ccccc3)c2C)cc1` Satisfied

Lab note: growth threshold 50%. Does this molecule come in strictly under it? `CCCS(=O)(=O)c1nc(NC2CC2)cc(-c2ccc3c(ccn3C3CC(C)(C)NC(C)(C)C3)c2)n1` Satisfied

Lab note: growth threshold 50%. Does this molecule come in strictly under it? `O=C(Nc1ccc(I)cc1)c1cccc([N+](=O)[O-])c1O` Satisfied

Lab note: growth threshold 50%. Does this molecule come in strictly under it? `Cc1nc2sccn2c1-c1csc(Nc2ccccc2Cl)n1` Satisfied

Lab note: growth threshold 50%. Does this molecule come in strictly under it? `COc1cc2c3c(c(=O)oc2cc1OS(=O)(=O)c1ccc(C(F)(F)F)cc1)CCCCC3` Not satisfied

Lab note: growth threshold 50%. Does this molecule come in strictly under it? CCCCn1c(=O)c(C2CNC(=O)c3ccccc3N2)cc2ccccc21 (configuration not stated) Not satisfied

Lab note: growth threshold 50%. Does this molecule come in strictly under it? `Cc1ccc(Oc2nc3ccccc3cc2-c2nnc(Cn3c(COc4ccccc4)nc4ccccc43)o2)cc1` Not satisfied

Lab note: growth threshold 50%. Does this molecule come in strictly under it? `COc1cc(Cn2c(SCCC(=O)Nc3ccc(F)cc3)nc3ccccc3c2=O)cc(OC)c1OC` Not satisfied

Lab note: growth threshold 50%. Does this molecule come in strictly under it? CC(=O)Nc1ccc(S(=O)(=O)N2C(=O)CCC2C(=O)Nc2ccccc2)cc1 (configuration not stated) Satisfied

* * *

Test system: UO-31 renal
Test: NCI-60 one-dose screen, 48 h
Conditions: 10 µM unless noted
Compounds without any hit were thinned out: in the full panel of roughly 83,000, 20% have a hit. Calls of active or inactive are those of the source. The calls were made as follows: active = growth percent below 10; inactive = the rest.
Use one of these outcomes when replying: TRUE (active), FALSE (inactive)

What did the test return for CC(=O)OCC1OC(OCC2OC(OC(C)=O)C(OC(C)=O)C(OC(C)=O)C2OC(C)=O)C(OC(C)=O)C(OC(C)=O)C1OC(C)=O (stereo not drawn) ? FALSE

What did the test return for COc1ccc(C2NC3=C(CCCC3)C(C#N)(C#N)C2(C#N)C#N)cc1 (stereo not drawn) ? FALSE

What did the test return for `Clc1ccc(-c2nc(-c3ccco3)cn3ccnc23)cc1` ? TRUE

* * *

Test system: NCI-H23 lung
Experiment: NCI-60 one-dose screen, 48 h
Conditions: 10 µM unless noted
The panel holds about 83,000 compounds, 20% with a hit somewhere; the sample as a whole holds those more often. Calls of active or inactive are those of the source. The calls were made as follows: active = growth percent below 10; inactive = the rest.
Use one of these outcomes when replying: T (active), F (inactive)

What did the test return for `COc1cccc(-c2nc3sccn3c2-c2ccnc(NCCCNS(=O)(=O)c3ccccc3)n2)c1` ? F

What did the test return for Cc1cnc(NC(=O)C(Cc2ccccc2)NC(=O)c2ccccc2)s1 (centres undefined) ? F

What did the test return for O=C(Nc1ccccc1)OCC1OCOC(COC(=O)Nc2ccccc2)C1OC(=O)Nc1ccccc1 (centres undefined) ? F

What did the test return for CCN1C(=O)N(CC)C2Nn3c(s/c(=C\c4cccc(F)c4)c3=O)=NC21 (centres undefined) ? F

What did the test return for CCCCNC(=O)NS(=O)(=O)c1ccc(N2N=C(c3ccc(C)cc3C)CC2c2ccc(OC)cc2)cc1 (centres undefined) ? F

What did the test return for Cc1ccc(C2=NN(c3ccc(S(N)(=O)=O)cc3)C(c3cn(-c4ccccc4)nc3-c3ccccc3)C2)cc1 (centres undefined) ? F

What did the test return for `COc1ccc(-c2cn[nH]c2-c2cc(OC)c3c(c2)OCO3)cc1` ? F

What did the test return for `CCNC(=O)CCCCC(=O)c1c(C)[nH]c(/C=C2\N=C(c3ccc[nH]3)C=C2OC)c1C` ? F

What did the test return for `CN1CCN(c2ccc3cc(-c4nc5ccccc5[nH]4)c(=O)oc3c2)CC1` ? F

What did the test return for `O=C1C2=C(C(=O)c3c(O)ccc(O)c31)N(c1cccnc1)Cc1ccccc1O2` ? T

What did the test return for `COc1cccc2cc(-c3cc4ccccc4[nH]3)/c(=N/C(=S)Nc3ccccc3)oc12` ? F

What did the test return for `O=C(O)c1ccc(-n2c(=O)c3ccccc3c3ccccc3c2=O)cc1` ? F

What did the test return for `COc1ccc(C(=O)/C=C/c2cc(C(=O)c3cc(OC)c(OC)c(OC)c3)ccc2OC)cc1` ? F

What did the test return for CC(=O)N1Cc2ccccc2C(C)Cc2cc(Cl)ccc21 (centres undefined) ? F

What did the test return for `COc1ccc(/C=C2\C(=O)N(C(=O)c3csc(NC(C)=O)n3)N=C2C)cc1` ? F

What did the test return for `COC(=O)CCCCN=Cc1c(O)c(O)c(C(C)C)c2cc(C)c(-c3c(C)cc4c(C(C)C)c(O)c(O)c(C=NCCCCC(=O)OC)c4c3O)c(O)c12` ? F

What did the test return for CC(C(=O)n1cc(-c2ccccc2)c(-c2ccccc2)c1)c1ccccc1 (centres undefined) ? F

What did the test return for `O=C(Cc1n[nH]c(=O)c2ccccc12)OCc1c(Cl)cccc1Cl` ? F

What did the test return for CCNC(=O)C1CCCN1C(=O)C(CCCN=C(N)N)NC(=O)C(CC(C)C)NC(=O)C(CC(C)C)NC(=O)C(Cc1ccc(O)cc1)NC(=O)C(CO)NC(=O)C(Cc1c[nH]c2ccccc12)NC(=O)C(Cc1cnc[nH]1)NC(=O)C1CCC(=O)N1 (centres undefined) ? F

What did the test return for `CN(C)CCCNC(=O)C(c1ccccc1)c1ccccc1` ? F

What did the test return for `O=C(Nc1cccc(Cl)c1)c1cc([N+](=O)[O-])ccc1O` ? F

What did the test return for `O=C(Nc1cc(C(F)(F)F)cc(C(F)(F)F)c1)Nc1ccc(OCc2nnc(-c3ccc(Cl)cc3)o2)c(F)c1` ? T

What did the test return for `O=C(CNc1c(Cl)cccc1Cl)Nc1ccc(-c2nc3ccccc3s2)cc1` ? F

What did the test return for `COc1cccc(-c2nc3sccn3c2-c2ccnc(NCCNS(=O)(=O)c3ccccc3)n2)c1` ? F

What did the test return for `Cc1ccc(Cn2c(-c3cccs3)nc3ccccc32)cc1` ? F

What did the test return for `COc1cc(NCCN=C(N)NC(N)=NC(C)C)c2ncccc2c1` ? F

What did the test return for `COc1ccc(/C=C/C(=O)OCC(=O)NNC(=O)c2ccccc2)cc1OC` ? F

What did the test return for `O=c1c2cccc3c(Nc4ccc(F)cc4)ccc(c32)c2nc3ccccc3n12` ? F

What did the test return for Cc1ccc(S(=O)(=O)OC2COCOC2C(OS(=O)(=O)c2ccc(C)cc2)C2OCOCC2OS(=O)(=O)c2ccc(C)cc2)cc1 (centres undefined) ? F

What did the test return for Clc1ccc2c(c1)NC1(CCSc3ccccc31)n1nccc1-2 (centres undefined) ? F

What did the test return for `CCOC(=O)CC/C(C)=N\Nc1ccc([N+](=O)[O-])cc1` ? F

What did the test return for `CCCCCCCCCCn1cc[n+](C)c1` ? F

What did the test return for `COc1cccc(/C=C/c2c(C(=O)O)cccc2[N+](=O)[O-])c1OC` ? F

What did the test return for `C=C1C(=O)O[C@H]2[C@H]1CC/C(COC(=O)NCCc1ccc(Br)cc1)=C\CC[C@@]1(C)O[C@@H]21` ? F

Sourced from PubChem BioAssay (NCI)
